Test system: DND-41
procedureText: selective drug sensitivity score (sDSS, relative to normal bone marrow) (sDSS (score)); higher = more potent and effective on the cell line relative to normal bone marrow cells;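 note: ALL cell lines in 384-well plates, five doses spanning 10,000-fold, each plate scaled between vehicle and 100 µmol/L benzalkonium chloride controls, sDSS an adapted area-under-curve metric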
measurementContext: 72 h
The class of a record is decided solely by its measured selective drug sensitivity score; consult A = under 2, B = from 2 up to 5, C = 5 and over

Please indicate the class for COc1ccc(S(=O)(=O)Nc2cccnc2Nc2ccc(O)cc2)cc1 [ABT-751] (top concentration 10000 nM) based on its selective drug sensitivity score.
C

Please indicate the class for Nc1cccc2c1CN(C1CCC(=O)NC1=O)C2=O (stereo not drawn) [Lenalidomide] (top concentration 100000 nM) based on its selective drug sensitivity score.
B

Please indicate the class for C=CCc1cccc(/C=N/NC(=O)CN2CCN(Cc3ccccc3)CC2)c1O [PAC-1] (top concentration 10000 nM) based on its selective drug sensitivity score.
B

Please indicate the class for CC(C)n1cnc2c(NCCc3ccc(O)cc3)nc(-c3csc4ccccc34)nc21 [StemRegenin_1] (top concentration 10000 nM) based on its selective drug sensitivity score.
B

Please indicate the class for O=C(Nc1cccnc1)N1CCC(Cc2cccc(Oc3ccc(C(F)(F)F)cn3)c2)CC1 [PF-3845] (top concentration 10000 nM) based on its selective drug sensitivity score.
A

Please indicate the class for C[C@@H](Oc1ccc2[nH]nc(/C=C/c3cnn(CCO)c3)c2c1)c1c(Cl)cncc1Cl (top concentration 1000 nM) based on its selective drug sensitivity score.
C

Please indicate the class for CCCOc1ccn2c(C(C)=O)cc(-c3ccccc3S(C)(=O)=O)c2c1 [GSK2801] (top concentration 10000 nM) based on its selective drug sensitivity score.
A

Please indicate the class for CC1=NN(c2ccc(C(=O)O)cc2)C(=O)C1=Cc1ccc(-c2cc(C)c(C)cc2[N+](=O)[O-])o1 [C646] (top concentration 25000 nM) based on its selective drug sensitivity score.
B

Please indicate the class for Cn1nccc1Nc1nccc(-c2ccn([C@H](CO)c3ccc(Cl)c(F)c3)c(=O)c2)n1 [Ravoxertinib] (top concentration 10000 nM) based on its selective drug sensitivity score.
B

Please indicate the class for CNC(=O)c1ccc(-c2cnc3ncc(Cc4ccc5ncccc5c4)n3n2)cc1F [Capmatinib] (top concentration 1000 nM) based on its selective drug sensitivity score.
A

Please indicate the class for N#Cc1ccnc(N2C(=O)CC[C@H]2C(=O)N(c2cncc(F)c2)[C@H](C(=O)NC2CC(F)(F)C2)c2ccccc2Cl)c1 [Ivosidenib] (top concentration 10000 nM) based on its selective drug sensitivity score.
A

Please indicate the class for NS(=O)(=O)OC[C@@H]1C[C@@H](n2ccc3c(N[C@H]4CCc5ccccc54)ncnc32)C[C@@H]1O [Pevonedistat] (top concentration 10000 nM) based on its selective drug sensitivity score.
C

###

System: NALM-6
procedureText: selective drug sensitivity score (sDSS, relative to normal bone marrow) (sDSS (score)); higher = more potent and effective on the cell line relative to normal bone marrow cells
measurementContext: 72 h
# cutoff -3 applies to selective drug sensitivity score; >= gives rule met, < gives rule not met

Observe how each entry below is paired with its result.
compound	discreteLabel
CCn1c(C(=O)N(C2CC2)C2CC2)cc2c3c(ncn3C)c(Nc3cc(C)n(C)n3)nc21 (top concentration 10000 nM)	rule not met
CC(C)c1c(C(=O)Nc2ccccc2)c(-c2ccccc2)c(-c2ccc(F)cc2)n1CC[C@@H](O)C[C@@H](O)CC(=O)O [Atorvastatin] (top concentration 10000 nM)	rule met
C[C@@H](Oc1ccc2[nH]nc(/C=C/c3cnn(CCO)c3)c2c1)c1c(Cl)cncc1Cl (top concentration 1000 nM)	rule met
CCN(CC)CCCC(C)Nc1ccnc2cc(Cl)ccc12 (stereo unspecified) [Chloroquine] (top concentration 100000 nM)	rule met
CC(C)Cn1cnc2c(N)nc3ccccc3c21 [Imiquimod] (top concentration 2500 nM)	rule met

API: the following record is the query input.
Does the compound Cn1c(Nc2ccc(C(F)(F)F)cc2)nc2cc(Oc3ccnc(-c4ncc(C(F)(F)F)[nH]4)c3)ccc21 [NVP-RAF265] (top concentration 1000 nM) have recorded selective drug sensitivity score that is -3 or more?
rule met

###

System: RCH-ACV
procedureText: selective drug sensitivity score (sDSS, relative to normal bone marrow) (sDSS (score)); higher = more potent and effective on the cell line relative to normal bone marrow cells
measurementContext: 72 h
# cutoff 9 applies to selective drug sensitivity score; >= gives y, < gives n

molecule	discreteLabel
CNC(=O)c1nn(C)c2c1C(C)(C)Cc1cnc(Nc3ccc(N4CCN(C)CC4)cc3)nc1-2 [Milciclib] (top concentration 10000 nM)	y
CC1(COc2ccc3c(c2)ncn3-c2ccc3cccc(N4CCC(N)CC4)c3n2)COC1 [Crenolanib] (top concentration 10000 nM)	n
COc1cc(Nc2ncc(F)c(Nc3ccc4c(n3)N(COP(=O)(O)O)C(=O)C(C)(C)O4)n2)cc(OC)c1OC [Fostamatinib] (top concentration 2500 nM)	n

Does the molecule CC(C)Oc1ccc(C(=O)N[C@H](CNC(=O)CN(C)C)Cc2ccc(-c3cn4cccc([C@H](C)O)c4n3)cc2)cc1Cl (top concentration 10000 nM) have recorded selective drug sensitivity score that is 9 or more?
y

Does the molecule Cc1c(C(=O)Nc2ccc(N3C[C@@H](C)O[C@@H](C)C3)nc2)cccc1-c1ccc(OC(F)(F)F)cc1 [Sonidegib] (top concentration 10000 nM) have recorded selective drug sensitivity score that is 9 or more?
n

Does the molecule C=CC(=O)N1CCC[C@@H](n2nc(-c3ccc(Oc4ccccc4)cc3)c3c(N)ncnc32)C1 [Ibrutinib] (top concentration 1000 nM) have recorded selective drug sensitivity score that is 9 or more?
y

###

Test system: REH
procedureText: selective drug sensitivity score (sDSS, relative to normal bone marrow) (sDSS (score)); higher = more potent and effective on the cell line relative to normal bone marrow cells
measurementContext: 72 h
# cutoff 3 applies to selective drug sensitivity score; >= gives 1, < gives -1

Observe how each entry below is paired with its result.
molecule	systemUnderTest	discreteLabel
O=C(c1cc(Cc2n[nH]c(=O)c3ccccc23)ccc1F)N1CCN(C(=O)C2CC2)CC1 [Olaparib] (top concentration 10000 nM)	REH	-1
CC(C)(C)C[C@@H]1N[C@@H](C(=O)N[C@H]2CC[C@H](O)CC2)[C@H](c2cccc(Cl)c2F)[C@]12C(=O)Nc1cc(Cl)ccc12 (top concentration 10000 nM)	REH	1
COc1cc(NS(C)(=O)=O)ccc1Nc1c2ccccc2nc2ccccc12 [Amsacrine] (top concentration 10000 nM)	REH	1

Does the molecule COC(=O)c1ccc2c(c1)NC(=O)/C2=C(\Nc1ccc(N(C)C(=O)CN2CCN(C)CC2)cc1)c1ccccc1 [Nintedanib] (top concentration 10000 nM) have recorded selective drug sensitivity score that is 3 or more?
-1

Does the molecule CC[C@H](Nc1ncnc2[nH]cnc12)c1nc2cccc(F)c2c(=O)n1-c1ccccc1 [Idelalisib] (top concentration 10000 nM) have recorded selective drug sensitivity score that is 3 or more?
-1

Does the molecule Oc1ccc2c(c1)CC[C@H](c1ccccc1)[C@@H]2c1ccc(OCCN2CCCC2)cc1 [Lasofoxifene] (top concentration 1000 nM) have recorded selective drug sensitivity score that is 3 or more?
-1

Does the molecule Cc1cc2c(C(C)C)c(O)c(O)c(C=O)c2c(O)c1-c1c(C)cc2c(C(C)C)c(O)c(O)c(C=O)c2c1O [AT-101] (top concentration 100000 nM) have recorded selective drug sensitivity score that is 3 or more?
1

Does the molecule Nc1nc(OCc2cc(Br)cs2)c2[nH]cnc2n1 [Lomeguatrib] (top concentration 10000 nM) have recorded selective drug sensitivity score that is 3 or more?
-1

Does the molecule C/C=C1\NC(=O)[C@H]2CSSCC/C=C/[C@H](CC(=O)N[C@H](C(C)C)C(=O)N2)OC(=O)[C@H](C(C)C)NC1=O [Romidepsin] (top concentration 1000 nM) have recorded selective drug sensitivity score that is 3 or more?
-1

Does the molecule O=C(Nc1ccncc1)C(=O)c1cn(Cc2ccc(Cl)cc2)c2ccccc12 [Indibulin] (top concentration 10000 nM) have recorded selective drug sensitivity score that is 3 or more?
1

Does the molecule O=c1[nH]c(C2CCCN2)nc2c1oc1ccc(Cl)cc12 (configuration not stated) (top concentration 10000 nM) have recorded selective drug sensitivity score that is 3 or more?
-1

Does the molecule COc1cc(Nc2ncc(F)c(Nc3ccc4c(n3)N(COP(=O)(O)O)C(=O)C(C)(C)O4)n2)cc(OC)c1OC [Fostamatinib] (top concentration 2500 nM) have recorded selective drug sensitivity score that is 3 or more?
-1

###

Tested on: NALM-6
procedureText: selective drug sensitivity score (sDSS, relative to normal bone marrow) (sDSS (score)); higher = more potent and effective on the cell line relative to normal bone marrow cells
measurementContext: 72 h
selective drug sensitivity score: recorded values

Tell me selective drug sensitivity score reported for Cc1cc(F)c(C(=O)Nc2cccc(-c3nncn3C(C)C)n2)cc1-n1cnc(C2CC2)c1 [Selonsertib] (top concentration 1000 nM)
0

Tell me selective drug sensitivity score reported for COc1cc2c(Oc3ccc(NC(=O)C4(C(=O)Nc5ccc(F)cc5)CC4)cc3F)ccnc2cc1OCCCN1CCOCC1 [Foretinib] (top concentration 1000 nM)
0.74

Tell me selective drug sensitivity score reported for C=CCc1cccc(/C=N/NC(=O)CN2CCN(Cc3ccccc3)CC2)c1O [PAC-1] (top concentration 10000 nM)
2.18

Tell me selective drug sensitivity score reported for COc1cc2c(cc1OCCCN1CCCC1)N=C(N)C21CCC1 [A-366] (top concentration 25000 nM)
-1.84

Tell me selective drug sensitivity score reported for Nc1cccc2c1CN(C1CCC(=O)NC1=O)C2=O (configuration not stated) [Lenalidomide] (top concentration 100000 nM)
-2.28

Tell me selective drug sensitivity score reported for CCCN(CCC)C(=O)C1=Cc2ccc(-c3ccc(C(=O)N4CCCC4)cc3)cc2N=C(N)C1 [Motolimod] (top concentration 10000 nM)
-3.38

Tell me selective drug sensitivity score reported for O=c1[nH]cc(F)c(=O)[nH]1 [Fluorouracil] (top concentration 10000 nM)
1.86
